# target_of_assay: IP receptor (Homo sapiens, UniProt P43119)
# Construct: HEL cells were collected with centrifugation and washed with cAMP assay buffer
# Sequence (P43119 whole entry): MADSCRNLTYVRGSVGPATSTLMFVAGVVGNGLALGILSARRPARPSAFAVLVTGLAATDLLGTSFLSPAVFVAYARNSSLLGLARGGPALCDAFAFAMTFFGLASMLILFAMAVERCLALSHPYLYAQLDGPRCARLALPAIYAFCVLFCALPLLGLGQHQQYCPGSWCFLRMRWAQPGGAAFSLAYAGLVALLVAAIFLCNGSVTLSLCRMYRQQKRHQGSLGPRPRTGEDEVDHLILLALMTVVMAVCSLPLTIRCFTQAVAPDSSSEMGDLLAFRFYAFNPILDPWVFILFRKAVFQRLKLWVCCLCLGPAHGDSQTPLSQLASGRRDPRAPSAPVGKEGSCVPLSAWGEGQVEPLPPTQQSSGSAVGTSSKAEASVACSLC
# measurement_description: Iloprost-induced cAMP production assay in HEL cells (Assay 2)
# stated_conditions: read-out: Activity grade assay 2
pIC50: −log10 of the molar value.

molecule: O=C(NC(Cc1ccccc1)C(=O)O)c1ccc2cc(OCc3cccnc3)ccc2c1 (centres unmarked) [Example 1-8]
pIC50: > 7.00
--
molecule: O=C(NC(Cc1ccccc1)C(=O)O)c1ccc2cc(OCc3ccccc3OC(F)(F)F)ccc2c1 (centres unmarked) [Example 1-37]
pIC50: < 6.00
--
molecule: Cc1cccc(COc2ccc3cc(C(=O)NC(Cc4ccccc4)C(=O)O)ccc3c2)c1 (centres unmarked) [Example 1-55]
pIC50: > 7.00
--
molecule: O=C(NC(Cc1ccccc1)C(=O)O)c1ccc2cc(OCc3ccc(Cl)c(Cl)c3)ccc2c1 (centres unmarked) [Example 1-32]
pIC50: 6.00 to 7.00
--
molecule: O=C(NC(Cc1ccccc1)C(=O)O)c1ccc2cc(OCCc3ccccc3)ccc2c1 (centres unmarked) [Example 1-19]
pIC50: > 7.00
--
molecule: Cc1ccccc1COc1ccc2cc(C(=O)NC(Cc3ccccc3)C(=O)O)ccc2c1 (centres unmarked) [Example 1-54]
pIC50: > 7.00
--
molecule: O=C(NC(Cc1ccccc1)C(=O)O)c1ccc2cc(OCc3ccccc3Cl)ccc2c1 (centres unmarked) [Example 1-23]
pIC50: > 7.00
--
molecule: O=C(NC(Cc1ccncc1)C(=O)O)c1ccc2cc(OCc3ccccc3)ccc2c1 (centres unmarked) [Example 1-69]
pIC50: 6.00 to 7.00
--
molecule: O=C(NC(Cc1ccccc1)C(=O)O)c1ccc2cc(OCCOc3ccccc3)ccc2c1 (centres unmarked) [Example 1-4]
pIC50: 6.00 to 7.00
--
molecule: O=C(NC(CO)C(=O)O)c1ccc2cc(OCc3ccccc3)ccc2c1 (centres unmarked) [Example 1-2]
pIC50: < 6.00
--
molecule: O=C(NC(CCc1ccccc1)C(=O)O)c1ccc2cc(OCc3ccccc3)ccc2c1 (centres unmarked) [Example 1-72]
pIC50: < 6.00
--
molecule: O=C(NC(Cc1ccccc1)C(=O)O)c1ccc2cc(OCc3cccc(OCC4CCCCC4)c3)ccc2c1 (centres unmarked) [Example 1-88]
pIC50: < 6.00
--
molecule: O=C(NC(Cc1ccc(Br)cc1)C(=O)O)c1ccc2cc(OCc3ccccc3)ccc2c1 (centres unmarked) [Example 1-45]
pIC50: > 7.00
--
molecule: Cc1ccc(C)c(COc2ccc3cc(C(=O)NC(Cc4ccccc4)C(=O)O)ccc3c2)c1 (centres unmarked) [Example 1-40]
pIC50: 6.00 to 7.00
--
molecule: O=C(NC(Cc1ccccc1)C(=O)O)c1ccc2cc(OCCN3CCCCC3)ccc2c1 (centres unmarked) [Example 1-82]
pIC50: < 6.00
--
molecule: Cc1ccc(COc2ccc3cc(C(=O)NC(Cc4ccccc4)C(=O)O)ccc3c2)cc1C (centres unmarked) [Example 1-58]
pIC50: 6.00 to 7.00
--
molecule: O=C(NC(Cc1cccc(C(F)(F)F)c1)C(=O)O)c1ccc2cc(OCc3ccccc3)ccc2c1 (centres unmarked) [Example 1-14]
pIC50: > 7.00

====

Measured melting point of individual entries
value_kind: melting point (°C)

compound: COc1cc(COc2ccc3cc(C(=O)NC(Cc4ccccc4)C(=O)O)ccc3c2)cc(OC)c1 (stereo not shown)
measurement_units: °C
number: 140

compound: O=C(NC(Cc1ccccc1)C(=O)O)c1ccc2cc(OCc3ccccc3OC(F)(F)F)ccc2c1 (stereo not shown)
measurement_units: °C
number: 158

compound: O=C(NC(Cc1ccccc1)C(=O)O)c1ccc2cc(OCCc3cccnc3)ccc2c1 (stereo not shown)
measurement_units: °C
number: 113

compound: O=C(NC(Cc1ccccc1)C(=O)O)c1ccc2cc(OCc3cc(Cl)cc(Cl)c3)ccc2c1 (stereo not shown)
measurement_units: °C
number: 180

compound: O=C(NC(Cc1ccccc1)C(=O)O)c1ccc2cc(OCc3ccc(Cl)cc3)ccc2c1 (stereo not shown)
measurement_units: °C
number: 226

compound: CC(Cc1ccccc1)(NC(=O)c1ccc2cc(OCc3ccccc3)ccc2c1)C(=O)O (stereo not shown)
measurement_units: °C
number: 184

compound: O=C(NC(Cc1ccccc1)C(=O)O)c1ccc2cc(OCc3ccc(C(F)(F)F)cc3)ccc2c1 (stereo not shown)
measurement_units: °C
number: 224

compound: O=C(NC(Cc1ccccc1)C(=O)O)c1ccc2cc(OCc3ccccn3)ccc2c1 (stereo not shown)
measurement_units: °C
number: 214

compound: O=C(NC(Cc1ccccc1)C(=O)O)c1ccc2cc(OCc3cccnc3)ccc2c1 (stereo not shown)
measurement_units: °C
number: 217

compound: COc1cccc(COc2ccc3cc(C(=O)NC(Cc4ccccc4)C(=O)O)ccc3c2)c1 (stereo not shown)
measurement_units: °C
number: 163

compound: Cc1nc(COc2ccc3cc(C(=O)NC(Cc4ccccc4)C(=O)O)ccc3c2)cs1 (stereo not shown)
measurement_units: °C
number: 208
